Recorded values, source patent US20090298055A1.

- System: parental CHO AA8 C5 cells (RFC deficient)
- procedure_details: MTX growth inhibition assay
- Type: cell-based, Chinese hamster
- condition_description: Cricetulus griseus, 72 h, 3 days
- Experimental: Cell growth inhibition by antifolates—For antifolate cell growth inhibition, cells (10^4/well) were seeded in 24-well plates in the respective growth medium (AA8 and derivatives in RPMI+10% FCS, and CHO-S cells in CD-CHO) containing various concentrations of MTX or the lipophilic antifolates, trimeterxate (Dr. David Fry, Warner-Lambert, Parke-Davis, Detroit, Mich.) and incubated for 3 days at 37° C. […]
recorded_metric: IC50

1) CN(Cc1cnc2nc(N)nc(N)c2n1)c1ccc(C(=O)N[C@@H](CCC(=O)O)C(=O)O)cc1 [MTX, methotrexate]	~3000 nM
